Value source: patent US20240116985A1

- system.under.test: T1, full-length beta-Catenin (Uniprot ID P35222) (Homo sapiens (Human), UniProt P35222 2-781)
- T1 construct: The assay text says 'full-length'; also called B-Catenin; bCat
- T1 sequence: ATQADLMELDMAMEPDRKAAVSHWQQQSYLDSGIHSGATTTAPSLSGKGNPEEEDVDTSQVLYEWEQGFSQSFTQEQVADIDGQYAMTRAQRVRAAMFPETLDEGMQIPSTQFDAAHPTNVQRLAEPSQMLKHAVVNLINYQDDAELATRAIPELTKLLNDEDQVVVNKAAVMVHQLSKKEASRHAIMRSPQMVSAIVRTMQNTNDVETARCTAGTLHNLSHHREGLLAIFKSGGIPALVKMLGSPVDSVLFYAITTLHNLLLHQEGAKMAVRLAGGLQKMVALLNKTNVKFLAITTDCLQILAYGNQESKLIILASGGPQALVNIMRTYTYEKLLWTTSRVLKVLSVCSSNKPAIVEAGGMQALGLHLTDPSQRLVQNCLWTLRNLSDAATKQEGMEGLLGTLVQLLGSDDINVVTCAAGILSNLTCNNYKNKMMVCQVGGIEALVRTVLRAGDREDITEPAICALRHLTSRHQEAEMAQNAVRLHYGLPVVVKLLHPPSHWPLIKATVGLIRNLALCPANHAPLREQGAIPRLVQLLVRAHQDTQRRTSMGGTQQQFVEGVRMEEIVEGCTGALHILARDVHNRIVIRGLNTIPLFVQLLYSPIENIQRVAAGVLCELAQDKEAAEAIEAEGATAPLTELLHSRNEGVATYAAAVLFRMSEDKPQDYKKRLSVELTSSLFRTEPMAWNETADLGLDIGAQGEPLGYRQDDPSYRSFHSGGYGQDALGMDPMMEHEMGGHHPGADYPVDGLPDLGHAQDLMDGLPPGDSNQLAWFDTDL
- protocol.notes: AlphaScreen competition vs biotin-TCF4(10-53) on full-length beta-catenin
pEC50: −log10 of the molar value. Starred links: 1 amine or outer side, 2 acyl side, 3 side chain; linkers in the order of their positions; H or OH if unused. Positions of bridges follow the written chain, without caps; N, C: chain ends. Non-standard residues stand in square brackets, D forms with d. Primed or numbered codes have the meaning given here. RgN = (R)-3-(((allyloxy)carbonyl)(methyl)amino)-2-amino-2-methylpropanoic acid (stapling residue), C=CCOC(=O)N(C)C[C@@](C)(N[*:1])C(=O)[*:2]; PyrS″ = (S)-1-((allyloxy)carbonyl)-3-aminopyrrolidine-3-carboxylic acid (stapling residue), C=CCOC(=O)N1CC[C@@](N[*:1])(C(=O)[*:2])C1; SgN = (S)-3-(((allyloxy)carbonyl)(methyl)amino)-2-amino-2-methylpropanoic acid, C=CCOC(=O)N(C)C[C@](C)(N[*:1])C(=O)[*:2]; PyrS = (S)-1-((allyloxy)carbonyl)-3-aminopyrrolidine-3-carboxylic acid, C=CCOC(=O)N1CC[C@@](N[*:1])(C(=O)[*:2])C1; Az(3) = 1-((allyloxy)carbonyl)-3-aminoazetidine-3-carboxylic acid, C=CCOC(=O)N1CC(N[*:1])(C(=O)[*:2])C1; Phe(4-COOH) = N[C@@H](Cc1ccc(C(=O)O)cc1)C(=O)O; S7 = C[C@@](CCCCCC=[*:3])(N[*:1])C(=O)[*:2]; 3Pal = N[C@@H](Cc1cccnc1)C(=O)O; R8 = C=CCCCCCC[C@@](C)(N)C(=O)O; Nle = CCCC[C@H](N)C(=O)O
Item-by-item account of pEC50

Ac-FDA[R8]D[Phe(4-COOH)]AAFV[PyrS″]FWQ-NH2 (staple 4-11, Stapled peptide composition) [I-7] | ≤ 5.00
Ac-FDA[R8]DDAAFV[SgN]FWQ-NH2 (staple 4-11, Stapled peptide composition) [I-34] | ≤ 5.00
Ac-FDA[R8]D[3Pal]AAFV[PyrS″]FWQ-NH2 (staple 4-11, Stapled peptide composition) [I-9] | ≤ 5.00
Ac-FDA[R8]D[Nle]AAFV[PyrS]FWQ-NH2 (staple 4-11, Stapled peptide composition) [I-13] | ≤ 5.00

*Q* Please look up its pEC50: Ac-FDA[RgN]DDAAFV[S7]FWQ-NH2 (staple 4-11, Stapled peptide composition) [I-45]
*A* ≤ 5.00

*Q* Please look up its pEC50: Ac-FDA[R8]DDAAFV[Az(3)]FWQ-NH2 (staple 4-11; not fully specified; printed as Ac-Phe-Asp-Ala-R8-Asp-Asp-Ala-Ala-Phe-Val-Az-Phe-Trp-Gln-NH2, Stapled peptide composition) [I-39]
*A* ≤ 5.00
